Data provenance is paper PMC7967119.

Each entry below carries its recorded melting point.
assay-readout: melting point

[[record]]
molecule = "COc1ccc(/C=N/c2c(C#N)nc3c(-c4ccc(OC)c(OC)c4)nc4ccccc4n23)cc1OC [Compound 6c]"
assay_readout = "melting point"
experimental_result = "170 to 172 °C"

[[record]]
molecule = "N#Cc1ccc(/C=N/c2c(C#N)nc3n2-c2ccccc2NC3c2ccc(C#N)cc2)cc1 (centres unmarked) [Compound 7k]"
assay_readout = "melting point"
experimental_result = "173 to 175 °C"

[[record]]
molecule = "N#Cc1nc2n(c1N)-c1ccccc1NC2c1ccccc1[N+](=O)[O-] (centres unmarked) [Compound 8c]"
assay_readout = "melting point"
experimental_result = "165 to 167 °C"

[[record]]
molecule = "CN(C)c1ccc(-c2nc3ccccc3n3c(N)c(C#N)nc23)cc1 [Compound 5c]"
assay_readout = "melting point"
experimental_result = "169 to 171 °C"

[[record]]
molecule = "CC(C)c1ccc(-c2nc3ccccc3n3c(N)c(C#N)nc23)cc1 [Compound 5d]"
assay_readout = "melting point"
experimental_result = "166 to 168 °C"


* * *

Recorded IC50 values for a group of compounds are listed next.
# Tested on: HCT-116 WT (colon cancer) cells
# experiment: MTT antiproliferative assay, HCT-116 WT
# condition-description: Homo sapiens, HCT-116, 48 h, read-out: IC50 (μM) ± SEM, HCT-116 WT (Colon Cancer)
assay-readout: IC50 (µM)

[[record]]
compound = "COc1ccc(/C(C)=N/c2c(C#N)nc3n2-c2ccccc2NC3(C)c2ccc(OC)c(OC)c2)cc1OC (stereo not drawn)"
assay_readout = "IC50"
result_comparator = "="
experimental_result = 7.9

[[record]]
compound = "C#Cc1cccc(Nc2ncnc3cc(OCCOC)c(OCCOC)cc23)c1 [Erlotinib, erlotinib, reference compound]"
assay_readout = "IC50"
result_comparator = "="
experimental_result = 2.98

[[record]]
compound = "N#Cc1nc2n(c1/N=C/c1ccc([N+](=O)[O-])cc1)-c1ccccc1NC2c1ccc([N+](=O)[O-])cc1 (stereo not drawn)"
assay_readout = "IC50"
result_comparator = "<"
experimental_result = 1

[[record]]
compound = "C/C(=N\\c1c(C#N)nc2n1-c1ccccc1NC2(C)c1ccc(Cl)cc1)c1ccc(Cl)cc1 (stereo not drawn)"
assay_readout = "IC50"
result_comparator = ">"
experimental_result = 25

[[record]]
compound = "COc1cc(/C=N/c2c(C#N)nc3c(-c4cc(OC)c(OC)c(OC)c4)nc4ccccc4n23)cc(OC)c1OC"
assay_readout = "IC50"
result_comparator = "="
experimental_result = 5.1

[[record]]
compound = "N#Cc1nc2n(c1/N=C/c1ccccc1F)-c1ccccc1NC2c1ccccc1F (stereo not drawn)"
assay_readout = "IC50"
result_comparator = "<"
experimental_result = 1


* * *

# assay-target: EGFR^WT (Homo sapiens, UniProt P00533)
# Sequence (P00533 25-1210): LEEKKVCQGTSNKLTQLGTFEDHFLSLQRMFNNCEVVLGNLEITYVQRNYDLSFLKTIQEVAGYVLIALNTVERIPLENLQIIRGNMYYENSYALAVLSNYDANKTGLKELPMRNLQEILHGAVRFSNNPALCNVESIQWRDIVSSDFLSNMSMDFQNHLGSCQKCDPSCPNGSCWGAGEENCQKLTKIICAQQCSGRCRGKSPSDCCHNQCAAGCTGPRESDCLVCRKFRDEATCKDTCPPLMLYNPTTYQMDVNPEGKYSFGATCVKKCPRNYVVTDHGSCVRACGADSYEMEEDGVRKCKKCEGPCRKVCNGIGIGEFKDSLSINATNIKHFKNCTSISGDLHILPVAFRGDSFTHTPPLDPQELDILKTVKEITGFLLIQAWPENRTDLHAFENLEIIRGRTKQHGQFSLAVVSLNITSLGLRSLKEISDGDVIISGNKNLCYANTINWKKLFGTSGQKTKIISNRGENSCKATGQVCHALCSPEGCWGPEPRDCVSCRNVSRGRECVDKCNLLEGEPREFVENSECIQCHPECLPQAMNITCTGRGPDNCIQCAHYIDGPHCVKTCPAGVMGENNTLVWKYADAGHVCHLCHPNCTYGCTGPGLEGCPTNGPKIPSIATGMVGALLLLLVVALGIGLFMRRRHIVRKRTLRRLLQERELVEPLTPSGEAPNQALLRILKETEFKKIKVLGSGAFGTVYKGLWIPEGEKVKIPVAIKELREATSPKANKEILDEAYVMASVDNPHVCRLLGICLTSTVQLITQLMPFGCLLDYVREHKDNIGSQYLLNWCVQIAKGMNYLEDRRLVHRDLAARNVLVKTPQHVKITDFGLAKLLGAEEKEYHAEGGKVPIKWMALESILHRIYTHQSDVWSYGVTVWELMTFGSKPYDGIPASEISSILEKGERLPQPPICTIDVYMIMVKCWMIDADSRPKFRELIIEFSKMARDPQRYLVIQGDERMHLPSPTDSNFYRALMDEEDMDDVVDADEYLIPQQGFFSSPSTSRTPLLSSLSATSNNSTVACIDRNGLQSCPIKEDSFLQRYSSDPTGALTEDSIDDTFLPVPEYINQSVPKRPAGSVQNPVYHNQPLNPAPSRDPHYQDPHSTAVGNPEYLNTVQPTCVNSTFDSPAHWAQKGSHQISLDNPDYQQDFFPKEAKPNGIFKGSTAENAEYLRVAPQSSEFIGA
# experiment: EGFR inhibitory assay (Z-lyte kinase assay kit, Tyr 4 peptide, FRET-based)
# Assay type: biochemical
# condition-description: EGFR wild type; tested at 100, 250, 500 and 720 nM; triplicate; read-out: EGFR Inhibition IC50 (nM) ± SEM
assay-readout: IC50

[[record]]
molecule = "COc1ccc(/C=N/c2c(C#N)nc3n2-c2ccccc2NC3c2ccc(OC)c(OC)c2)cc1OC (centres unmarked)"
assay_target = "EGFR^WT (Homo sapiens, UniProt P00533)"
experimental_result = "> 720 nM"

[[record]]
molecule = "N#Cc1nc2n(c1/N=C/c1ccc([N+](=O)[O-])cc1[N+](=O)[O-])-c1ccccc1NC2c1ccc([N+](=O)[O-])cc1[N+](=O)[O-] (centres unmarked)"
assay_target = "EGFR^WT (Homo sapiens, UniProt P00533)"
experimental_result = "477 nM"

[[record]]
molecule = "N#Cc1ccc(C2Nc3ccccc3-n3c2nc(C#N)c3N)cc1 (centres unmarked)"
assay_target = "EGFR^WT (Homo sapiens, UniProt P00533)"
experimental_result = "> 720 nM"

[[record]]
molecule = "COc1ccc(OC)c(/C=N/c2c(C#N)nc3c(-c4cc(OC)ccc4OC)nc4ccccc4n23)c1"
assay_target = "EGFR^WT (Homo sapiens, UniProt P00533)"
experimental_result = "430 nM"

[[record]]
molecule = "COc1cc(-c2nc3ccccc3n3c(N)c(C#N)nc23)cc(OC)c1OC"
assay_target = "EGFR^WT (Homo sapiens, UniProt P00533)"
experimental_result = "> 720 nM"

[[record]]
molecule = "N#Cc1nc2n(c1N)-c1ccccc1NC2c1cccc([N+](=O)[O-])c1 (centres unmarked)"
assay_target = "EGFR^WT (Homo sapiens, UniProt P00533)"
experimental_result = "> 720 nM"

[[record]]
molecule = "N#Cc1nc2n(c1/N=C/c1ccccc1F)-c1ccccc1NC2c1ccccc1F (centres unmarked)"
assay_target = "EGFR^WT (Homo sapiens, UniProt P00533)"
experimental_result = "222 nM"

[[record]]
molecule = "CC1(C)Nc2ccccc2-n2c1nc(C#N)c2N [Compound 10d]"
assay_target = "EGFR^WT (Homo sapiens, UniProt P00533)"
experimental_result = "625 nM"

